So I've got a bunch of sequences here, and I need their self-splicing fitness (ln) values.
Assay: self-splicing fitness, log relative to wild type (ln ratio); higher = more splicing; Tetrahymena group I intron in knt gene, E. coli kanamycin selection, DiMSum; sequences stand for … in CUCUCU…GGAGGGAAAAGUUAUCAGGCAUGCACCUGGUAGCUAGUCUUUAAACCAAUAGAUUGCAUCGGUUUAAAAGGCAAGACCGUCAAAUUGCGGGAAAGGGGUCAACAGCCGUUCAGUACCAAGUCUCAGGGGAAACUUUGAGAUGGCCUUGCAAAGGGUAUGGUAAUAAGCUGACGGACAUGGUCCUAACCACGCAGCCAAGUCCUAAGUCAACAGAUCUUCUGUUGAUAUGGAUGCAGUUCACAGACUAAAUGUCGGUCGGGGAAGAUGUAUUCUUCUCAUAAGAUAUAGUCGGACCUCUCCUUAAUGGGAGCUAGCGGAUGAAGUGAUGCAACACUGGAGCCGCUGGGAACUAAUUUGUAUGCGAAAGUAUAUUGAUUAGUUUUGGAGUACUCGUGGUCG;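 further: selection with 25 µg/mL kanamycin versus none on LB agar overnight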
Details: 30 °C
Answers are plain numbers.

Consider the worked cases shown below.
| sequenceRecord | self-splicing fitness (ln) |
| --- | --- |
| GACCAGCAAUAUUACGCGUG | -0.273 |
| GCGGAGCAAUAUUACGAAAC | -3.16 |
| AGUGAGCAAUAUUACGUACA | -1.72 |
| AAUUAGCAAUAUUACGUCGG | -2.72 |
| AACCAGCAAUAUUACGAACG | -1.27 |

Parameters: items (list). Returns: self-splicing fitness (ln) for each item.
1. GGCGAGCAAUAUUACGGAAU
2. GCGUAGCAAUAUUACGGAAU
3. ACAUAGCAAUAUUACGAGAA
4. AUCUAGCAAUAUUACGAUUA
5. GCUCAGCAAUAUUACGUAGA
6. CGUCAGCAAUAUUACGGACG
7. CACGAGCAAUAUUACGACUA

Output line:
-2.91
-2.67
-2.62
-0.971
-0.134
-3.63
-2.71

Hi team, please reply with self-splicing fitness (ln) for each item in this list.
1. UUCCAGCAAUAUUACGCCCG
2. ACGGAGCAAUAUUACGGGAA
3. ACUUAGCAAUAUUACGGCUG
4. CUGUAGCAAUAUUACGUUCA
5. ACUGAGCAAUAUUACGGGCC
6. UUCAAGCAAUAUUACGGGUA

Output line:
[-1.33, -4.37, -1.32, -3.47, -2.33, -0.67]

Batch lookup, self-splicing fitness (ln) per entry.
1. UCGAAGCAAUAUUACGCACA
2. AGAAAGCAAUAUUACGCUUA
3. CUAAAGCAAUAUUACGUAGG
4. CCGUAGCAAUAUUACGUUAG
5. UAGGAGCAAUAUUACGUAUC

Output line:
1: -1.23; 2: -1.63; 3: -1.15; 4: -2.22; 5: -1.71

* * *

Assay: self-splicing fitness, log relative to wild type (ln ratio); higher = more splicing; Tetrahymena group I intron in knt gene, E. coli kanamycin selection, DiMSum; sequences stand for … in CUCUCU…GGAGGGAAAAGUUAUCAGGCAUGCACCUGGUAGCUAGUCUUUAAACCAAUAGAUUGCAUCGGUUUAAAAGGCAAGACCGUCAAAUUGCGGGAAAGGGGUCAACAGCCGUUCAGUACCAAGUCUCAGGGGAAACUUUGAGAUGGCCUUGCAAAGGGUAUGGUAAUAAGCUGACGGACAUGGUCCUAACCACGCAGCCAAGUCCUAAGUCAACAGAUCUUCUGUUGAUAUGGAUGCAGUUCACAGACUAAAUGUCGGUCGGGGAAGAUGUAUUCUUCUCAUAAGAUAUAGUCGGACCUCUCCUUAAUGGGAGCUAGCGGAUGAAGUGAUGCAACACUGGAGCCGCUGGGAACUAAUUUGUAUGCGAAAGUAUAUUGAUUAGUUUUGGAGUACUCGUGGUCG
Details: 30 °C
Assign label 1 to entries whose self-splicing fitness (ln) meets or exceeds -2; assign label 0 to the rest.

| sequenceRecord | assignedLabel |
| --- | --- |
| CGCCAGCAAUAUUACGAUAC | label 0 |
| GGAGAGCAAUAUUACGAGCA | label 1 |
| CUCCAGCAAUAUUACGUGUA | label 0 |
| AUUAAGCAAUAUUACGAUAA | label 1 |
| CCCCAGCAAUAUUACGCCAG | label 0 |

Input line: Kindly determine if self-splicing fitness (ln) recorded for UCAGAGCAAUAUUACGUCCG is above or exactly -2.
Output line: label 0

Input line: Consider next the sequence AGUGAGCAAUAUUACGUAUU in the same way.
Output line: label 0

Input line: What do you get for CAUGAGCAAUAUUACGAAUA ?
Output line: label 1

Input line: Another: AACAAGCAAUAUUACGAAGU
Output line: label 0

Input line: Next sequence up: UUGAAGCAAUAUUACGACUU
Output line: label 1

Input line: Next sequence: GAUAAGCAAUAUUACGGCAC
Output line: label 1

Input line: // query: GAUCAGCAAUAUUACGUUCG
Output line: label 1

Input line: Do the same for UGACAGCAAUAUUACGUUUA please
Output line: label 1

Input line: Another sequence: UGGCAGCAAUAUUACGCUUG
Output line: label 0

Input line: Next sequence up: CCGGAGCAAUAUUACGUCAA
Output line: label 0
